Here, compounds appear alongside pIC50 reported for Tyrosine-protein kinase JAK3 (Homo sapiens) in the literature.
pIC50: −log10 of the molar value.

Some solved cases for reference:
1. Cc1ccc(C(=O)NCc2cccc(C(F)(F)F)c2)cc1-c1ccc2c(c1)[nH]c1ncncc12 :: ≥ 6.30
2. CN(c1ncnc2[nH]ccc12)N1CCCC(C)(C(=O)NCC(F)(F)F)C1 (stereo not drawn) :: < 6.00

Shifting focus to the compound that follows.
Q) Give pIC50 for this entry on Tyrosine-protein kinase JAK3 (Homo sapiens): CC(C1CC1)n1cc(-c2nc(-c3cnn(C)c3)cc3nccn23)cn1 (stereo not drawn)
A) < 6.00

* * *

Here, compounds appear alongside IC50 reported for Tyrosine-protein kinase JAK3 (Homo sapiens, UniProt P52333) in the literature.

Some solved cases for reference:
1. NC(=O)c1nc(-c2c(Cl)cccc2Cl)oc1Nc1ccc(C(=O)N2CCS(=O)(=O)CC2)cc1 :: 0.212 µM
2. O=C(CN1CCN(c2ccncc2)CC1)Nc1cccc(-c2cnc3ccccc3n2)c1 :: > 10 µM
3. CCC(CC)n1cc(-c2nc(-c3cnn(C[C@@H](O)COC)c3)cn3nccc23)cn1 :: 1 to 10 µM
4. CCC(CC)n1cc(-c2nc(-c3cnn(C4CN(C(=O)C5(O)CC5)C4)c3)cn3nccc23)cn1 :: 1 to 10 µM
5. CCC(C(=O)Nc1nccc2c(-c3nc(Nc4cn(C)nc4OC)ncc3C)c[nH]c12)N1CCC(O)C1 (centres unmarked) :: < 0.5 µM
6. O=c1[nH]c2c(CO)nc(-n3cnc4ccc(F)cc43)nc2n1C1CCOCC1 :: 0.1 to 1 µM
7. Cn1cc(-c2cc3nccn3c(-c3cnn(C(CC#N)C4CC4)c3)n2)cn1 (single isomer, unassigned; enantiomer 2) :: 0.1 to 1 µM

Shifting focus to the compound that follows.
Q) Give IC50 for this entry on Tyrosine-protein kinase JAK3 (Homo sapiens, UniProt P52333): "COc1ncc(-c2cc3nccn3c(-c3cnn(C4(CC#N)CN(S(=O)(=O)C(F)(F)F)C4)c3)n2)cn1"
A) > 1 µM
